The values you see were collected from PubChem BioAssay (NCI).

experiment: NCI Yeast Anticancer Drug Screen. Data for the rad18 strain (AID 177); conditions: S. cerevisiae rad18 mutant growth inhibition; at 100.0 µM; active compounds read high
About 79,000 compounds went through this panel and 15% of them were active in at least one assay; those are over-represented in the sample as a whole. The source made the active and inactive calls. Cut-off read from the data, not from the text of the source: active = growth inhibition above about 70%; inactive = the rest.
attribute-measured: growth inhibition

Would you please look over these solved cases?
CC(C)NC(=O)OCc1c(COC(=O)NC(C)C)c(-c2ccc(Cl)c(Cl)c2)n2c1CCC2 = 84% (active)
COc1ccc2nc3cccc([N+](=O)[O-])c3c(NCCN(CCO)CCO)c2c1 = 95% (active)
O=Nc1c(NO)ccc2nn(-c3ccccc3)nc12 = 97% (active)

Query string: For Cc1cc(CO)c(O)c(CNCc2cc(C)cc(CO)c2O)c1 , write its growth inhibition.
Result string: 98% (active)

Query string: For CC1=C(SCCO)C(=O)c2ccccc2C1=O , write its growth inhibition.
Result string: 51% (inactive)

Query string: For CCOC(=O)C1=C(C(=O)c2ccccc2)C(c2ccccc2[N+](=O)[O-])C(C(=O)c2ccccc2)=C(C(=O)OCC)N1 , write its growth inhibition.
Result string: 39% (inactive)

Query string: For O=C1CSC(/C=C/c2ccccc2)N1c1ccc(-c2ccc(-n3c(-c4ccccc4)nc4ccccc4c3=O)cc2)cc1 (stereo not drawn) , write its growth inhibition.
Result string: 46% (inactive)

Query string: For CC1(C)C(=O)OC(n2cc(F)c(=O)[nH]c2=O)C1=O (stereo not drawn) , write its growth inhibition.
Result string: 28% (inactive)

Query string: For Cn1c2ccccc2c(=O)c2cc(NC(=O)CCCCC(=O)Nc3ccc4c(c3)c(=O)c3ccccc3n4C)ccc21 , write its growth inhibition.
Result string: 79% (active)

Query string: For COc1ccc2nc3c([N+](=O)[O-])ccc(NCCN(C)C)c3c(NCCN(C)C)c2c1 , write its growth inhibition.
Result string: -6% (inactive)

Query string: For O=C(NCCCNCCCNC(=O)c1cc(-c2ccccc2)nc2ccccc12)c1cc(-c2ccccc2)nc2ccccc12 , write its growth inhibition.
Result string: 34% (inactive)

Query string: For OC(COc1cccc2ccccc12)CN1CCOCC1 (stereo not drawn) , write its growth inhibition.
Result string: 51% (inactive)
